assay: Pharmacokinetics in C57BL/6 female mice, IV and PO; format: in vivo; conditions: mouse; PO 30 mg/kg, plasma, C57BL/6 female mice

{"RECORD SMILES": "Cc1nc(N2C[C@@H](CC(=O)Nc3ccc(-c4ccccc4)cc3)C[C@H]2C(=O)O)c2oc3ccccc3c2n1", "AUC(0-inf), ng·h/mL": 13600}

* * *

target: UniProtKB Q8N884; assay: Transcreener cGAS enzymatic assay (FP); assay type: biochemical; settings: standard conditions: 100 μM ATP and GTP, 62.5 nM bp ISD, 60 minute reactions; read-out: IC50 FP Standard
MEASURED ATTRIBUTE: IC50

{"MOLECULE": "Cc1nc(N2C[C@@H](CC(=O)Nc3ccc4[nH]ccc4c3)C[C@H]2C(=O)O)c2oc3ccccc3c2n1 [Compound 1]", "MEASURED ATTRIBUTE": "IC50", "TEST RESULT": "50 to 100 nM"}
{"MOLECULE": "Cc1nc(N2C[C@@H](CC(=O)N(C)C3CCCC3)C[C@H]2C(=O)O)c2oc3ccccc3c2n1 [Compound 2]", "MEASURED ATTRIBUTE": "IC50", "TEST RESULT": "50 to 100 nM"}
{"MOLECULE": "Cc1nc(N2C[C@@H](CC(=O)Nc3ccc(-c4ccc5cn[nH]c5c4)cc3)C[C@H]2C(=O)O)c2oc3ccccc3c2n1 [Compound 39]", "MEASURED ATTRIBUTE": "IC50", "TEST RESULT": "100 to 200 nM"}
{"MOLECULE": "Cc1ccc(NC(=O)C[C@H]2C[C@@H](C(=O)O)N(c3nc(C)nc4c3oc3ccccc34)C2)cc1 [Compound 15]", "MEASURED ATTRIBUTE": "IC50", "TEST RESULT": "200 to 1000 nM"}
{"MOLECULE": "Cc1nc(N2C[C@@H](CC(=O)Nc3ccc(F)cc3)C[C@H]2C(=O)O)c2oc3ccccc3c2n1 [Compound 18]", "MEASURED ATTRIBUTE": "IC50", "TEST RESULT": "200 to 1000 nM"}
{"MOLECULE": "Cc1nc(N2C[C@@H](CC(=O)Nc3ccc(-c4ccccc4)cc3)C[C@H]2C(=O)O)c2oc3ccccc3c2n1 [Compound 5]", "MEASURED ATTRIBUTE": "IC50", "TEST RESULT": "50 to 100 nM"}
{"MOLECULE": "C#Cc1ccc(NC(=O)C[C@H]2C[C@@H](C(=O)O)N(c3nc(C)nc4c3oc3ccccc34)C2)cc1 [Compound 27]", "MEASURED ATTRIBUTE": "IC50", "TEST RESULT": "100 to 200 nM"}

* * *

biological target: cGAS (Homo sapiens, UniProt Q8N884); assay: Transcreener cGAS enzymatic assay (FP); type: biochemical; conditions: standard conditions: 100 μM ATP and GTP, 62.5 nM bp ISD, 60 minute reactions; read-out: IC50 FP Standard
Sequence (Q8N884 whole entry): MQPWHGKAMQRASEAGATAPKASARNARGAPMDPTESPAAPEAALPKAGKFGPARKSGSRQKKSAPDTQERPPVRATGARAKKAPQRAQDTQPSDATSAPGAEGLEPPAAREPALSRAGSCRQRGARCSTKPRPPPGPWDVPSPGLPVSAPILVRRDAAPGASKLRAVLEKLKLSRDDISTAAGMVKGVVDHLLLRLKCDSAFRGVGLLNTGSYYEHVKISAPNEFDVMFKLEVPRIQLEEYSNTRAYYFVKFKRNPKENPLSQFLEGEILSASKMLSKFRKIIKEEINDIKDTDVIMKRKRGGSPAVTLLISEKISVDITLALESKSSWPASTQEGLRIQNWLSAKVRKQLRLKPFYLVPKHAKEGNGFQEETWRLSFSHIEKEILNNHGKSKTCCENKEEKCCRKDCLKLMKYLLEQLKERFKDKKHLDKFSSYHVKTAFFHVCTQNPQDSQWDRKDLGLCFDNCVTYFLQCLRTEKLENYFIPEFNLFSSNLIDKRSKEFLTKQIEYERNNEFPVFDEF

{"RECORD SMILES": "Cc1nc(N2C[C@@H](CC(=O)Nc3ccc(C(F)(F)F)cc3)C[C@H]2C(=O)O)c2oc3ccccc3c2n1", "IC50": "200 to 1000 nM"}
{"RECORD SMILES": "Cc1nc(N2C[C@@H](CC(=O)Nc3ccc4cn[nH]c4c3)C[C@H]2C(=O)O)c2oc3ccccc3c2n1", "IC50": "100 to 200 nM"}
{"RECORD SMILES": "Cc1nc(N2C[C@@H](CC(=O)Nc3cccc4[nH]ncc34)C[C@H]2C(=O)O)c2oc3ccccc3c2n1", "IC50": "200 to 1000 nM"}
{"RECORD SMILES": "Cc1nc(N2C[C@@H](CC(=O)Nc3cccc(-c4cn[nH]c4)c3)C[C@H]2C(=O)O)c2oc3ccccc3c2n1", "IC50": "50 to 100 nM"}
{"RECORD SMILES": "Cc1nc(N2C[C@@H](CC(=O)Nc3ccc(-c4ccccc4)cn3)C[C@H]2C(=O)O)c2oc3ccccc3c2n1", "IC50": "50 to 100 nM"}
{"RECORD SMILES": "Cc1nc(N2C[C@@H](CC(=O)Nc3ccc4cnccc4c3)C[C@H]2C(=O)O)c2oc3ccccc3c2n1", "IC50": "100 to 200 nM"}
{"RECORD SMILES": "Cc1nc(N2C[C@@H](CC(=O)Nc3ccc(-c4cccc(O)c4)cc3)C[C@H]2C(=O)O)c2oc3ccccc3c2n1", "IC50": "< 50 nM"}

* * *

biological target: cGAS (Homo sapiens); assay: Transcreener cGAS enzymatic assay (FP); format: biochemical; conditions: high ATP and GTP (1 mM) to mimic physiological conditions; read-out: IC50 FP Physiological
MEASURED ATTRIBUTE: IC50

{"RECORD SMILES": "Cc1nc(N2C[C@@H](CC(=O)Nc3cccc(-c4ccccc4)c3)C[C@H]2C(=O)O)c2oc3ccccc3c2n1", "TARGET OR SYSTEM": "cGAS (Homo sapiens)", "TEST RESULT": "200 to 500 nM"}
{"RECORD SMILES": "Cc1nc(N2C[C@@H](CC(=O)Nc3cccc4[nH]ncc34)C[C@H]2C(=O)O)c2oc3ccccc3c2n1", "TARGET OR SYSTEM": "cGAS (Homo sapiens)", "TEST RESULT": "1000 to 5000 nM"}
{"RECORD SMILES": "Cc1nc(N2C[C@@H](CC(=O)Nc3ccc4[nH]ccc4c3)C[C@H]2C(=O)O)c2oc3ccccc3c2n1", "TARGET OR SYSTEM": "cGAS (Homo sapiens)", "TEST RESULT": "1000 to 5000 nM"}
{"RECORD SMILES": "Cc1nc(N2C[C@@H](CC(=O)Nc3cnc(-c4ccccc4)nc3)C[C@H]2C(=O)O)c2oc3ccccc3c2n1", "TARGET OR SYSTEM": "cGAS (Homo sapiens)", "TEST RESULT": "500 to 1000 nM"}

* * *

assay: Metabolic stability in mouse hepatocytes; format: in vitro ADME; conditions: given as number, read-out: Mouse MS Stability t1/2

{"RECORD SMILES": "Cc1nc(N2C[C@@H](CC(=O)Nc3ccc(-c4ccccc4)c(C(F)(F)F)c3)C[C@H]2C(=O)O)c2oc3ccccc3c2n1", "half-life": "> 6 h"}

* * *

Examples of compounds with documented pIC50 follow.
biological target: cGAS (Homo sapiens); assay: Transcreener cGAS enzymatic assay (FP); type: biochemical; settings: high ATP and GTP (1 mM) to mimic physiological conditions; read-out: IC50 FP Physiological
pIC50: −log10 of the molar value.

{"RECORD SMILES": "Cc1nc(N2C[C@@H](CC(=O)Nc3cccc(N4CCOCC4)c3)C[C@H]2C(=O)O)c2oc3ccccc3c2n1", "pIC50": "5.30 to 6.00"}
{"RECORD SMILES": "Cc1nc(N2C[C@@H](CC(=O)Nc3ccc(-c4ccnc(O)c4)cc3)C[C@H]2C(=O)O)c2oc3ccccc3c2n1", "pIC50": "6.00 to 6.30"}
{"RECORD SMILES": "Cc1nc(N2C[C@@H](CC(=O)Nc3ccc(-c4ccccc4)cc3)C[C@H]2C(=O)O)c2oc3ccccc3c2n1", "pIC50": "6.00 to 6.30"}
{"RECORD SMILES": "Cc1nc(N2C[C@@H](CC(=O)Nc3ccc(Cc4ccccn4)cc3)C[C@H]2C(=O)O)c2oc3ccccc3c2n1", "pIC50": "5.30 to 6.00"}
{"RECORD SMILES": "Cc1nc(N2C[C@@H](CC(=O)Nc3cccc(F)c3)C[C@H]2C(=O)O)c2oc3ccccc3c2n1", "pIC50": "5.30 to 6.00"}
{"RECORD SMILES": "Cc1nc(N2C[C@@H](CC(=O)Nc3ccc(Cl)c(Cl)c3)C[C@H]2C(=O)O)c2oc3ccccc3c2n1", "pIC50": "5.30 to 6.00"}
{"RECORD SMILES": "Cc1nc(N2C[C@@H](CC(=O)Nc3ccc(N4CCC(O)CC4)cc3)C[C@H]2C(=O)O)c2oc3ccccc3c2n1", "pIC50": "5.30 to 6.00"}

* * *

biological target: cGAS (Homo sapiens); assay: Transcreener cGAS enzymatic assay (FP); format: biochemical; settings: high ATP and GTP (1 mM) to mimic physiological conditions; read-out: IC50 FP Physiological
As shown below, each of these compounds has a reported IC50 value.
MEASURED ATTRIBUTE: IC50

{"RECORD SMILES": "COc1cccc(NC(=O)C[C@H]2C[C@@H](C(=O)O)N(c3nc(C)nc4c3oc3ccccc34)C2)c1", "TEST RESULT": "1000 to 5000 nM"}
{"RECORD SMILES": "Cc1nc(N2C[C@@H](CC(=O)Nc3ccc4cccnc4c3)C[C@H]2C(=O)O)c2oc3ccccc3c2n1", "TEST RESULT": "500 to 1000 nM"}
{"RECORD SMILES": "Cc1nc(N2C[C@@H](CC(=O)Nc3ccc(N4CCCCC4)cc3)C[C@H]2C(=O)O)c2oc3ccccc3c2n1", "TEST RESULT": "1000 to 5000 nM"}
{"RECORD SMILES": "Cc1nc(N2C[C@@H](CC(=O)Nc3ccc(-c4ccc(N)nc4)cc3)C[C@H]2C(=O)O)c2oc3ccccc3c2n1", "TEST RESULT": "200 to 500 nM"}
